These entries and their values trace back to ChEMBL document CHEMBL1143869.

Species on record: Homo sapiens
TEST_METHOD_NOTES: Binding affinity to human telomeric G-quadraflex assessed as thermal stability at 10 uM by FRET assay
Consider the following compounds; for each one, report its ΔTm.
Give bare numbers, in °C.

Field: example entries. Status: answers known.
SMILES	ΔTm [°C]
O=C(NCCN1CCCC1)c1ccc2c(c1)C(=O)c1ccc(C(=O)NCCN3CCCC3)cc1C2=O	10.8
O=C(CCN1CCCC1)Nc1ccc2c(c1)C(=O)c1ccc(NC(=O)CCN3CCCC3)cc1C2=O	19.2
NCCC(=O)Nc1ccc2c(c1)C(=O)c1cc(NC(=O)CCN)ccc1C2=O	27.3
NCCNC(=O)c1ccc2c(c1)C(=O)c1ccc(C(=O)NCCN)cc1C2=O	10
NCCNC(=O)c1ccc2c(c1)C(=O)c1cc(C(=O)NCCN)ccc1C2=O	12.9

Consider the record given below.
Dear colleague, please send me the reported ΔTm for NCCC(=O)Nc1ccc2c(c1)C(=O)c1ccc(NC(=O)CCN)cc1C2=O when you can.
18.1

----------
TEST_METHOD_NOTES: Inhibition of human telomerase in JR8 cells by TRAP assay
Format: cell-based
One threshold, 10 µM, splits the recorded EC50 values: lower ones are Criterion met, equal or higher ones are Criterion not met.

Recorded results for 2 compounds are shown here.
SMILES	CLASS
O=C(NCCN1CCCC1)c1ccc2c(c1)C(=O)c1ccc(C(=O)NCCN3CCCC3)cc1C2=O	Criterion not met
O=C(CCN1CCCC1)Nc1ccc2c(c1)C(=O)c1ccc(NC(=O)CCN3CCCC3)cc1C2=O	Criterion met

Given the entry NCCC(=O)Nc1ccc2c(c1)C(=O)c1ccc(NC(=O)CCN)cc1C2=O , would its reported EC50 be below 10 µM?
Criterion met

Given the entry NCCC(=O)Nc1ccc2c(c1)C(=O)c1cc(NC(=O)CCN)ccc1C2=O , would its reported EC50 be below 10 µM?
Criterion met

Given the entry NCCNC(=O)c1ccc2c(c1)C(=O)c1ccc(C(=O)NCCN)cc1C2=O , would its reported EC50 be below 10 µM?
Criterion met

Given the entry NCCNC(=O)c1ccc2c(c1)C(=O)c1cc(C(=O)NCCN)ccc1C2=O , would its reported EC50 be below 10 µM?
Criterion not met

----------
Organism: Homo sapiens
TEST_METHOD_NOTES: Binding affinity to human telomeric G-quadraflex assessed as thermal stability at 1 uM by FRET assay
READOUT_LABEL: ΔTm

Go through the items and report each one's ΔTm.
1. NCCNC(=O)c1ccc2c(c1)C(=O)c1ccc(C(=O)NCCN)cc1C2=O
2. O=C(NCCN1CCCC1)c1ccc2c(c1)C(=O)c1ccc(C(=O)NCCN3CCCC3)cc1C2=O
3. NCCC(=O)Nc1ccc2c(c1)C(=O)c1ccc(NC(=O)CCN)cc1C2=O
4. O=C(CCN1CCCC1)Nc1ccc2c(c1)C(=O)c1ccc(NC(=O)CCN3CCCC3)cc1C2=O
5. NCCC(=O)Nc1ccc2c(c1)C(=O)c1cc(NC(=O)CCN)ccc1C2=O
6. NCCNC(=O)c1ccc2c(c1)C(=O)c1cc(C(=O)NCCN)ccc1C2=O

2 °C
1.8 °C
9.1 °C
5.9 °C
11.3 °C
3.3 °C
